- assaySystem: T1, recombinant human CD73 extracellular domain (Trp27-Lys546) with C-terminal 6-histidine tag (human, UniProt P21589 27-547)
- T1 construct: also called hCD73; hCD73-cHis
- T1 sequence: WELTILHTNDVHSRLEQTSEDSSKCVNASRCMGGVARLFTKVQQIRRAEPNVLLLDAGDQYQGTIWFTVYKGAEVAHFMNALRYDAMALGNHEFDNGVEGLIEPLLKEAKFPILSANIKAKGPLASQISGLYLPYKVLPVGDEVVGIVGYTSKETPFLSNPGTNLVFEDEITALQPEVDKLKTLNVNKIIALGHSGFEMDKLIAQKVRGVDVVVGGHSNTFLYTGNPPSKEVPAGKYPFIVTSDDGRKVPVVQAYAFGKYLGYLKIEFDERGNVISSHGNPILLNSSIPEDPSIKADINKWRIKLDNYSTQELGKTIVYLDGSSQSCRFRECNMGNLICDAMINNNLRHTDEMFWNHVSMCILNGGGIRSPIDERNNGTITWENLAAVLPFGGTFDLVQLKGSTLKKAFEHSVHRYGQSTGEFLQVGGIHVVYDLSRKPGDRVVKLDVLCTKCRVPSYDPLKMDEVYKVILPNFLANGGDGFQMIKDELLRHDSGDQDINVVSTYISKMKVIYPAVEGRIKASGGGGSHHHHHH
- runDescription: SPR, Biacore T200, antibody captured on Protein A chip, hCD73 ECD as analyte, 1:1 Langmuir
In this section, each of the binders is paired with its reported koff.

binder	koff / s⁻¹
CD73 antibody 6G8 (chimeric) (antibody, V domains shown, Mouse variable regions on human IgG heavy chain constant region and human kappa constant region (chimeric IgG); also called Clone 6G8; 6G8 Chimera) VH: QVTLKESGPGILKPSQTLSLTCSFSGFSLNTSGMGVGWIRQPSGKGLEWLAHIWWDDDKYYNPSLKSQLTISKDTSRNQVFLRIASVDTADTATYYCARRERWAWFAYWGQGTLVTVSA VL: DIVMTQSQKFMSASVGDRVSVTCKASQNVFTNVAWYQQKPGQSPKVLIYSASYRYSGVPDRFTGSGSGTDFTLTINNVQSEDLAEYFCQQYNSYPTFGSGTKLEIK	0.000111
humanized anti-CD73 antibody 6G8 VH-v1/VK-v1 (antibody, V domains shown, Human IgG1 CH1-CH3 constant region and kappa constant region; also called hu6G8 VHv1 + hu6G8 Vkv1) VH: QVTLRESGPALVKPTQTLTLTCTFSGFSLSTSGMGVGWIRQPPGKALEWLAHIWWDDDKYYNPSLKSRLTISKDTSKNQVVLTMTNMDPVDTATYYCARRERWAWFAYWGQGTLVTVSS VL: DIQMTQSPSSLSASVGDRVTITCRASQNVFTNVAWYQQKPGKAPKVLIYSASYRYSGVPSRFSGSGSGTDFTLTISSLQPEDFATYFCQQYNSYPTFGQGTKLEIK	0.000106
humanized anti-CD73 antibody 22C12 VH-v10/VL-v3 (antibody, V domains shown, Human IgG1 CH1-CH3 constant region and kappa constant region; also called hu22C12 VHv10 (printed hu22C12 Vilv10) + hu22C12 Vkv3) VH: QVQLVQSGAEVKKPGASVKVSCKASGYTFTGYWIQWVRQAPGQGLEWMGAIYPGDEDTRYTQKFQGRVTMTADTSISTAYMELSRLRSDDTAVYYCARGNWDDWDFDVWGQGTTVTVSS VL: DIQMTQSPSSLSASVGDRVTITCRASQDISNYLNWYQQKPGKAPKLLIHYTSRLHSGVPSRFSGSGSGTDFTLTISSLQPEDFATYYCQQGDTLPWTFGQGTKVEIK	0.000179
